# study system: T1, His-tag camel-derived nanobody AS718 VHH-His (camel-derived)
# T1 construct: Immunogen; recombinantly expressed with a C-terminal His tag; also called immunogen AS718; immunogen AS718 VHH-His; not shown: C-terminal His tag
# T1 sequence (VHH, as listed by the source): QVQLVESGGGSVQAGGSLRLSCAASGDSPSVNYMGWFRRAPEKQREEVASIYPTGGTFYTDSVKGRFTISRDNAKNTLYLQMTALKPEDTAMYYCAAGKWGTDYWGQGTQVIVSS
# measurement notes: indirect ELISA, AS718 VHH-His coated, hybridoma supernatant

# binder, binding result
data = [
    ("R166.E5 (antibody, V domains shown, Rabbit monoclonal; also called clone R166.E5) VH: QSLEESGGRLVTPGTPLTLTCTASGFSLSGYYMIWVRQAPGKGLEYIGIVTSSGSTHYASWANGRFAISKTSSTTVDLKMPSLTTEDTATYFCAREGGWAFDLWGQGTLVTVSS VL: QVLTQTPFSVSTAVGGTVTINCQSSESVANSNWLSWYQQKPGQPPKLLIYWASKLASGVPSRFSGSGSGTQFTLTISGVQCADAATYYCQGGYTSDRRAFGGGTEVVVKG", "binds"),
    ("R166.D1 (antibody, V domains shown, Rabbit monoclonal; also called clone R166.D1) VH: QSVEESGGRLVKPDESLTLTCTVSGFSLSNYDMIWVRQAPGKGLEWIGVIYPTGTTYYANWVKGRFTISKTSTTVGLLITSPTTEDTATYFCARKPILYVDSSGWYIDLWGQGTLVTVSS VL: AYDMTQTPSSVSAAVGGTVSIKCQASENINNYLSWYQQKPGQPPKLLIYQASRLASAVPSRFKGSGSGTQFTLTIDDLECADAATYYCQQGHSVSNDVGNVFGGGTEVVVKG", "binds"),
]
